Tested on: F380Y/beta4
Assay: modulators of BK channel variants, profiling panel, selectivity assay, cell-based, U2OS BacMam, thallium flux, beta subunits (AID 1259406);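 further: initial slope of Thallos dye fluorescence rise after thallium is added; log ratio against the mean of 0.3% DMSO vehicle wells on the same plate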
Conditions: at 30 µM
Measured log fold change Tl+ flux accompanies every entry in the list below.
Measured parameter: log fold change Tl+ flux

INSERT INTO results (compound, measured_parameter, reported_result) VALUES
  ('COc1ccc(OC)c(C(O)CNC(=O)CN)c1 (centres undefined)', 'log fold change Tl+ flux', 0.0115),
  ('CC(=O)[C@H]1CC[C@H]2[C@@H]3C[C@H](C)C4=CC(=O)CC[C@]4(C)[C@H]3[C@@H](O)C[C@]12C', 'log fold change Tl+ flux', -0.0204),
  ('N[C@@H]1CONC1=O', 'log fold change Tl+ flux', 0.0351),
  ('CN[C@@H]1[C@H](O)[C@H](NC)[C@H]2O[C@@]3(O)C(=O)C[C@@H](C)O[C@H]3O[C@@H]2[C@H]1O', 'log fold change Tl+ flux', 0.0229);
